System: Escherichia coli TOP10
procedure-text: shrunken log2 fold change of peptide-encoding DNA abundance (4.5 h post-induction vs induction); higher = less antimicrobial activity (less host growth inhibition)
condition-description: time post-induction: 4.5 h; library: site-saturation at positions 5, 18, 19, 20
reported-endpoint: shrunken log2 fold change

1) RRIRWRPPRLPRPRPRPWIRPRP    -0.124
2) RRIRPRPPRLPRPRPRPKRYPRP    0.281
3) RRIRIRPPRLPRPRPRPFGKPRP    -0.0569
4) RRIRMRPPRLPRPRPRPTVPPRP    0.388
5) RRIRTRPPRLPRPRPRPYLTPRP    -0.171
6) RRIRVRPPRLPRPRPRPFKCPRP    -0.0453
7) RRIRLRPPRLPRPRPRPEMHPRP    -0.132
8) RRIRARPPRLPRPRPRPGQGPRP    0.204
9) RRIRCRPPRLPRPRPRPFPAPRP    -0.0653
10) RRIRARPPRLPRPRPRPMEFPRP    -0.117
11) RRIRHRPPRLPRPRPRPPHGPRP    0.389
12) RRIRIRPPRLPRPRPRPVLMPRP    -0.229
13) RRIRSRPPRLPRPRPRPPEMPRP    0.265
14) RRIRFRPPRLPRPRPRPPTTPRP    0.276
15) RRIRGRPPRLPRPRPRPQSMPRP    0.276

---

Test system: Escherichia coli TOP10
procedure-text: shrunken log2 fold change of peptide-encoding DNA abundance (4.5 h post-induction vs induction); higher = less antimicrobial activity (less host growth inhibition)
condition-description: time post-induction: 4.5 h; library: site-saturation at positions 5, 18, 19, 20
Reported shrunken log2 fold change values are given for each entry in this list.
reported-endpoint: shrunken log2 fold change

1. RRIRTRPPRLPRPRPRPEYKPRP    0.134
2. RRIRYRPPRLPRPRPRPKDIPRP    -0.109
3. RRIRPRPPRLPRPRPRPQQSPRP    -0.236
4. RRIRCRPPRLPRPRPRPKNTPRP    -0.339
5. RRIRKRPPRLPRPRPRPPMIPRP    -0.0795
6. RRIRHRPPRLPRPRPRPAAFPRP    0.068
7. RRIRPRPPRLPRPRPRPVLFPRP    0.118
8. RRIRIRPPRLPRPRPRPKWGPRP    -0.00761
9. RRIRLRPPRLPRPRPRPRHEPRP    0.055
10. RRIRDRPPRLPRPRPRPMFFPRP    0.125
11. RRIRRRPPRLPRPRPRPRYPPRP    0.252
12. RRIRHRPPRLPRPRPRPELYPRP    -0.215
13. RRIRVRPPRLPRPRPRPTWIPRP    0.216
14. RRIRQRPPRLPRPRPRPSTLPRP    -0.319
15. RRIRCRPPRLPRPRPRPIQHPRP    -1.21

---

Test system: Escherichia coli TOP10;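 also: peptides expressed intracellularly from a pBAD plasmid library in pooled LB shake-flask culture, induced with 0.3% L-arabinose, DNA abundance read by NGS, three biological replicates, DESeq2 with apeglm shrinkage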
procedure-text: shrunken log2 fold change of peptide-encoding DNA abundance (4.5 h post-induction vs induction); higher = less antimicrobial activity (less host growth inhibition)
condition-description: time post-induction: 4.5 h; library: site-saturation at positions 5, 18, 19, 20
Given measured shrunken log2 fold change, output y if it is greater than or equal to -0.05 and n if not.

1) RRIRNRPPRLPRPRPRPMYNPRP    n
2) RRIRKRPPRLPRPRPRPPHVPRP    y
3) RRIRARPPRLPRPRPRPDKGPRP    y
4) RRIRARPPRLPRPRPRPAWHPRP    y
5) RRIRVRPPRLPRPRPRPLYNPRP    n
6) RRIRWRPPRLPRPRPRPSWKPRP    n
7) RRIRWRPPRLPRPRPRPKDTPRP    n
8) RRIRQRPPRLPRPRPRPRLAPRP    y
9) RRIRWRPPRLPRPRPRPCLVPRP    y
10) RRIRPRPPRLPRPRPRPAEEPRP    y
11) RRIRPRPPRLPRPRPRPQYDPRP    n
12) RRIRGRPPRLPRPRPRPTRGPRP    y
13) RRIRLRPPRLPRPRPRPHAYPRP    n
14) RRIRKRPPRLPRPRPRPDYHPRP    n
15) RRIRYRPPRLPRPRPRPGWFPRP    n
16) RRIRARPPRLPRPRPRPHLGPRP    y
17) RRIRKRPPRLPRPRPRPQVQPRP    y
18) RRIRPRPPRLPRPRPRPFAYPRP    n
19) RRIRNRPPRLPRPRPRPHIQPRP    y
20) RRIRNRPPRLPRPRPRPLYKPRP    n
21) RRIRQRPPRLPRPRPRPYPEPRP    n
22) RRIRIRPPRLPRPRPRPQIHPRP    n
23) RRIRRRPPRLPRPRPRPFMYPRP    n
24) RRIRFRPPRLPRPRPRPPWWPRP    y
25) RRIRDRPPRLPRPRPRPIWKPRP    y
26) RRIRLRPPRLPRPRPRPICYPRP    n
27) RRIRPRPPRLPRPRPRPFWMPRP    y
28) RRIRERPPRLPRPRPRPDMKPRP    y
29) RRIRDRPPRLPRPRPRPTRYPRP    y
30) RRIRWRPPRLPRPRPRPKRTPRP    y
31) RRIRQRPPRLPRPRPRPNKCPRP    n
32) RRIRCRPPRLPRPRPRPIIMPRP    n
33) RRIRQRPPRLPRPRPRPEDMPRP    y
34) RRIRDRPPRLPRPRPRPMIQPRP    n
35) RRIRKRPPRLPRPRPRPGKIPRP    y
36) RRIRKRPPRLPRPRPRPDRGPRP    y
37) RRIRWRPPRLPRPRPRPQLAPRP    y
38) RRIRGRPPRLPRPRPRPNSPPRP    n
39) RRIRVRPPRLPRPRPRPYWLPRP    n
40) RRIRPRPPRLPRPRPRPKLWPRP    y
41) RRIRHRPPRLPRPRPRPTQRPRP    y
42) RRIRRRPPRLPRPRPRPQGVPRP    n
43) RRIRDRPPRLPRPRPRPDRKPRP    n
44) RRIRQRPPRLPRPRPRPKTWPRP    y
45) RRIRLRPPRLPRPRPRPEDRPRP    y
46) RRIRKRPPRLPRPRPRPADLPRP    y
47) RRIRRRPPRLPRPRPRPFFPPRP    y
48) RRIRIRPPRLPRPRPRPPPMPRP    y
49) RRIRVRPPRLPRPRPRPKNKPRP    n
50) RRIRCRPPRLPRPRPRPAWCPRP    y
51) RRIRLRPPRLPRPRPRPYKMPRP    n
52) RRIRDRPPRLPRPRPRPSLMPRP    y
53) RRIRVRPPRLPRPRPRPANEPRP    n
54) RRIRTRPPRLPRPRPRPTQIPRP    y
55) RRIRNRPPRLPRPRPRPNRMPRP    n
56) RRIRDRPPRLPRPRPRPKMGPRP    n
57) RRIRLRPPRLPRPRPRPVPFPRP    y
58) RRIRRRPPRLPRPRPRPRFNPRP    n
59) RRIRKRPPRLPRPRPRPAEEPRP    y
60) RRIRMRPPRLPRPRPRPNGGPRP    y
61) RRIRWRPPRLPRPRPRPMRIPRP    y

Taken from the supplement of paper PMC9112550.
